// provenance: ChEMBL document CHEMBL4017487

System: Muscarinic acetylcholine receptor M1 (Homo sapiens, UniProt P11229) | Read-out: pKi
Sequence (P11229 whole entry): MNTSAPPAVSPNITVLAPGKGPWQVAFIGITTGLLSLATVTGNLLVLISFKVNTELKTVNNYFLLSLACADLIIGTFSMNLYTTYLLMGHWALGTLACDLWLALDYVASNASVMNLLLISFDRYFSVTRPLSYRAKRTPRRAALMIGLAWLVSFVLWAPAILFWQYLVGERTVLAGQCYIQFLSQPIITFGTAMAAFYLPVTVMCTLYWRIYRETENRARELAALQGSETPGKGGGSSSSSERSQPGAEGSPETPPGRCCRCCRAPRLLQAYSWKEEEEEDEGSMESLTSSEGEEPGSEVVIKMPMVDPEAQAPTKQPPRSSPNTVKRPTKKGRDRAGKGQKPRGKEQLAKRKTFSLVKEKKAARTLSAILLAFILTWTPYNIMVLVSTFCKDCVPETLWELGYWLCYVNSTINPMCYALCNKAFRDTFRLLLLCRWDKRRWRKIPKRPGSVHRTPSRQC
Note: pKi values are expressed as the negative base-10 logarithm of concentration in M.

Tell me the measured pKi of Cc1ccc(Cc2cc3c(=O)n([C@H]4CCCC[C@@H]4O)cnc3c3ccccc23)cn1 , please. 8.10

For Cc1cc2c(cc1Cc1ccc(-c3cocn3)cc1)C(=O)N([C@H]1CCOC[C@@H]1O)C2 then? 7.80

---

system: Rattus norvegicus; experiment: Toxicity in rat assessed as unbound brain concentration at 45 mg/kg, po administered as single dose; assay type: organism-based; conditions: in vivo
observation_type: Drug uptake(free)

Tell me the measured Drug uptake(free) of Cc1cc2c(cc1Cc1ccc(-c3cocn3)cc1)C(=O)N([C@H]1CCOC[C@@H]1O)C2 , please. 460 to 760 nM
